Origin of the recorded values: paper PMC8989696

assay: Furathiocarb biotransformation kinetics in individual human hepatic microsomes (10 donors); assay type: in vitro ADME; conditions: human, pH 7.4, HLM22; read-out: Km, sum of carbofuran metabolic pathway
OUTCOME MEASURE: Km

Quick check: Km of CCCCOC(=O)N(C)SN(C)C(=O)Oc1cccc2c1OC(C)(C)C2 [furathiocarb, Furathiocarb] ? 71.8 µM

###

target: CYP2C19 (Homo sapiens, UniProt P33261)
Sequence (P33261 whole entry): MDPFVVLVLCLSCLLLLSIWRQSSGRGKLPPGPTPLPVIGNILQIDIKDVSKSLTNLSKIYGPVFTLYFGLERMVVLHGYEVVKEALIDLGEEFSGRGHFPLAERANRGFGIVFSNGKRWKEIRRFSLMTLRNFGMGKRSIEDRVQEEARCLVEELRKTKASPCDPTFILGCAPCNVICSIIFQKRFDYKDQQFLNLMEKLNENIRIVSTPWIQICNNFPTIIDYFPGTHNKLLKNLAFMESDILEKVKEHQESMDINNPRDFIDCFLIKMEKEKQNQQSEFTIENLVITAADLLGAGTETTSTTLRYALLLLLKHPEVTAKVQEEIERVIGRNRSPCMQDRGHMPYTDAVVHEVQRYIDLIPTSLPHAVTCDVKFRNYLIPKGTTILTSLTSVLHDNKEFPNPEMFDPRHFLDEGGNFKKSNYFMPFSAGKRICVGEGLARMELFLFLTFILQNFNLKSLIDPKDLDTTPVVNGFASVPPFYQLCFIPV
pIC50: −log10 of the molar value.
OUTCOME MEASURE: pIC50

So what pIC50 did CCCCOC(=O)N(C)SN(C)C(=O)Oc1cccc2c1OC(C)(C)C2 get with CYP2C19 (Homo sapiens, UniProt P33261)? 4.73 to 4.78
